- Test system: b.End3 cells
- experimental.protocol: Hyperglycaemia-induced mitochondrial dysfunction: mitochondrial membrane potential restore
- Type: cell-based
- condition: BEND3, 10 days hyperglycaemia, compound added on day 8 for two days
measured.property: IC50 (nM)

compound: COC1=C(OC)C(=O)C(CCCCCCCCCCOC(=O)COc2ccc(-c3cc(=S)ss3)cc2)=C(C)C1=O [Example 1]
unit.tag: nM
IC50: 0.4

[A] COC1=C(OC)C(=O)C(CCCCCCCCCC(=O)Oc2ccc(C(N)=S)cc2)=C(C)C1=O [Example 4]
[B] COC1=C(OC)C(=O)C(CCCCCCCCCC(=O)Oc2ccc(-c3cc(=O)ss3)cc2)=C(C)C1=O [Example 3]
Task: I would appreciate it if you could say which entry, A or B , has the lower IC50 value. Your choice should be expressed through its label.
Result: A

====

- System: b.End3 cells
- experimental.protocol: Toxicity (TC50)
- Format: cell-based
measured.property: CC50 (µM)
Write the number in µM without appending the unit.

Task: Recorded CC50 for `O=C(CCCCCCCCC[P+](c1ccccc1)(c1ccccc1)c1ccccc1)Oc1ccc(-c2cc(=S)ss2)cc1.[Br-]` , please?
Result: 8

====

- experimental.protocol: Toxicity (TC50)
- Format: cell-based
- condition: mouse, b.End3 cells
molecules and their reported CC50
Write the number in µM without appending the unit.

compound.structure.string: COC1=C(OC)C(=O)C(CCCCCCCCCC(=O)Oc2ccc(-c3cc(=O)ss3)cc2)=C(C)C1=O
measured.property: CC50
assay.result: 76
--
compound.structure.string: COC1=C(OC)C(=O)C(CCCCCCCCCC(=O)Oc2ccc(C(N)=S)cc2)=C(C)C1=O
measured.property: CC50
assay.result: 100

# context switch: different molecule, same CC50
Task: Recorded CC50 for `COC1=C(OC)C(=O)C(CCCCCCCCCCOC(=O)COc2ccc(-c3cc(=S)ss3)cc2)=C(C)C1=O` , please?
Result: 147

Ref: patent US20240400536A1
